Here the recorded GI50 is given for each entry.
System: MDA-MB-231
measurement.notes: NCI tumour cell line growth inhibition, 48 h
Active and inactive are the calls of the source. Cut-off read from the data, not from the text of the source: active = GI50 up to about 1.1 µM and inactive = higher. Square brackets hold non-standard residues; d marks the D form. Peptide text beside a SMILES is read from it. * marks the point of attachment. X26 = COC1=CC(=O)N(C(=O)[C@@H](O*)C(C)C)[C@H]1Cc1ccccc1; NMeL = CN[C@@H](CC(C)C)C(=O)O; Hexanoyl = CCCCCC(=O)*

• CC(=O)C(=[N+]=[N-])C(=O)N1CCOC1=O = > 10 µM (inactive)

State the recorded GI50 for this entry: Clc1ccc(-c2c(C3=NCCCN3)nnn2-c2ccc(Cl)cc2)cc1
> 48.2 µM (inactive)

State the recorded GI50 for this entry: N#Cc1c(N)n(-c2nc3ccccc3s2)c(=O)c2cc([N+](=O)[O-])ccc12
15.6 µM (inactive)

State the recorded GI50 for this entry: O=S(=O)(O)c1ccc(/N=N/c2ccc(/N=N/c3c(O)ccc4cc(S(=O)(=O)O)ccc34)cc2)cc1
> 100 µM (inactive)

State the recorded GI50 for this entry: COc1ccc2c(c1)-c1nc(=S)n(CCCN(C)C)c3ccc([N+](=O)[O-])c(c13)N2
0.687 µM (active)

State the recorded GI50 for this entry: C=CCc1ccccc1CC1(OCC)OC(=O)c2ccccc21 (stereo not drawn)
72.8 µM (inactive)

State the recorded GI50 for this entry: CC(=O)Nc1ccc(S(=O)(=O)Nc2nnc(S(N)(=O)=O)s2)cc1
> 100 µM (inactive)

State the recorded GI50 for this entry: COc1ccc(Cn2c(=O)c(OC)c(C)c3cc4ccccc4cc32)cc1
22.7 µM (inactive)

State the recorded GI50 for this entry: Cc1ccnc(Nc2[nH]c(C(=O)c3ccc(Cl)cc3)c(N)c2C(=S)Nc2ccccc2)c1
16.6 µM (inactive)

State the recorded GI50 for this entry: COC1=C2CC(C)CC(OC)[C@@H](OC(=O)CCN)[C@H](C)/C=C(\C)C(OC(N)=O)C(OC)/C=C\C=C(/C)C(=O)NC(=CC1=O)C2=O (stereo partly drawn)
1.99 µM (inactive)

State the recorded GI50 for this entry: O=CNc1ccc(S(=O)(=O)c2ccc(NC=O)cc2)cc1
> 100 µM (inactive)

State the recorded GI50 for this entry: CC(=O)C1C(=O)C(=O)N(c2cccc([N+](=O)[O-])c2)C1=O (stereo not drawn)
> 100 µM (inactive)

State the recorded GI50 for this entry: COC(=O)c1c2c(cc3c1CC1(Cc4cc5c(cc4C1)CCCC5)C3)CCCC2
> 100 µM (inactive)

State the recorded GI50 for this entry: O=C1Nc2ccccc2/C1=N/N=c1\cccc[nH]1
12.6 µM (inactive)

State the recorded GI50 for this entry: N=C(N)SCc1cc(Cl)cc(Cl)c1O
15.1 µM (inactive)

State the recorded GI50 for this entry: C[n+]1ccc(/C2=C3\C=CC(=N3)/C(c3cc[n+](C)cc3)=c3/cc/c([nH]3)=C(\c3cc[n+](C)cc3)C3=N/C(=C(/c4cc[n+](C)cc4)C4C=CC2N4)C=C3)cc1
> 100 µM (inactive)

State the recorded GI50 for this entry: OCCCNCc1ccccn1
> 100 µM (inactive)

State the recorded GI50 for this entry: C=C(C)C1CC/C(C)=C/CCC2(C)OC2CC/C(CO)=C\C1O (stereo not drawn)
> 100 µM (inactive)

State the recorded GI50 for this entry: CCCCCC(=O)N[C@H](C(=O)N[C@H](C(=O)N(C)[C@@H](CC(C)C)C(=O)N1CCC[C@H]1C(=O)N1CCC[C@H]1C(=O)O[C@H](C(=O)N1C(=O)C=C(OC)[C@@H]1Cc1ccccc1)C(C)C)C(C)C)C(C)C (Hexanoyl-VV[NMeL]PP-X26)
> 64.9 µM (inactive)

State the recorded GI50 for this entry: CCOC(=O)c1sc2nc(SC)nc(Nc3ccc4c(c3)OCCO4)c2c1N
11.1 µM (inactive)

State the recorded GI50 for this entry: Cc1n[nH]c(=O)n1C1CCCC1
> 100 µM (inactive)

State the recorded GI50 for this entry: Cc1ccc2c(c1)CC1(Cc3cccc(C)c3C1=O)C2=O (stereo not drawn)
19.4 µM (inactive)

State the recorded GI50 for this entry: CC(=O)OCC1OC(N2C(=O)CC(N)=Nc3ccccc32)C(OC(C)=O)C(OC(C)=O)C1OC(C)=O (stereo not drawn)
> 100 µM (inactive)

State the recorded GI50 for this entry: CC(=O)Nc1ncc2c(n1)-c1ccccc1OC2c1ccccc1 (stereo not drawn)
21.7 µM (inactive)

State the recorded GI50 for this entry: CCC1CN2CCc3c([nH]c4ccccc34)[C@@](C(=O)OC)(c3cc4c(cc3OC)N(C)C3C(O)(C(=O)OC)C(C(=O)OC)C5(CC)C=CCN6CCC43C65)C[C@@H](C2)[C@@H]1C(C)(C)C (stereo partly drawn)
0.407 µM (active)
